target: T1, fXa (UniProt P00742 41-179; P00742 235-488); assay: pseudo-first-order inhibition kinetics, residual chromogenic activity (S2222)
T1 construct: also called factor Xa
T1 sequence (P00742 41-179 limits assumed, form in doubt, chain 1 of 2): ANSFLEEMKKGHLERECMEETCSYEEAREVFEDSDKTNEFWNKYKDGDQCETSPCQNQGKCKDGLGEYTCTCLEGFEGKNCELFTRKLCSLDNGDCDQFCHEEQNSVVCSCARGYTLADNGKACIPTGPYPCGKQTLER
T1 sequence (P00742 235-488 limits assumed, form in doubt, chain 2 of 2): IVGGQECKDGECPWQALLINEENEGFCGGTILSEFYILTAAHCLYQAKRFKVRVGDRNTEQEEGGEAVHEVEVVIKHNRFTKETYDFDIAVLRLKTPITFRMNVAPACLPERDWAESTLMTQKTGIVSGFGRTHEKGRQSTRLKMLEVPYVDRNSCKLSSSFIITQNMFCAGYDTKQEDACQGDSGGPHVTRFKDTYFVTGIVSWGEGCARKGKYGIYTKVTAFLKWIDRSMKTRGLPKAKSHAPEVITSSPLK
Endpoint: second-order rate constant of inhibition (M⁻¹ s⁻¹)
Just the number in M⁻¹ s⁻¹, nothing appended.

Using the record for A22 WT PCI (other, Serpin; E. coli, SUMO tag removed; also called A22 wild-type (WT) PCI) APSSRRDFTFDLYRALASAAPSQNIFFSPVSISMSLAMLSLGAGSSTKMQILEGLGLNLQKSSEKELHRGFQQLLQELNQPRDGFQLSLGNALFTDLVVDLQDTFVSAMKTLYLADTFPTNFRDSAGAMKQINDYVAKQTKGKIVDLLKNLDSNAVVIMVNYIFFKAKWETSFNHKGTQEQDFYVTSETVVRVPMMSREDQYHYLLDRNLSCRVVGVPYQGNATALFILPSEGKMQQVENGLSEKTLRKWLKMFKKRQLELYLPKFSIEGSYQLEKVLPSLGISNVFTSHADLSGISNHSNIQVSEMVHKAVVEVDESGTRAAAATGTIFTFRSARLNSQRLVFNRPFLMFIVDNNILFLGKVNRP , report its second-order rate constant of inhibition.
10300
